Collected apparent Kd (screen) values appear next to each entry.
Biological target: T1, TNFR1 (Homo sapiens, UniProt P19438)
T1 chain: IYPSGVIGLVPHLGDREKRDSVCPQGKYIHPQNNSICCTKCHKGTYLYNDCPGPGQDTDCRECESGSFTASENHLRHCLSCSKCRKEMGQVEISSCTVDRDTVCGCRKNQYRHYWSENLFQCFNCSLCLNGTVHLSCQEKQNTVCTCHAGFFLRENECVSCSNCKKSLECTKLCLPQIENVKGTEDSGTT
Experiment: yeast display SC50
Could you give me the number in nM? Just the number is fine.

# binder, apparent Kd (screen) / nM
rows = [
    ("E89G (designed binder) SMEEEVEKAAKEYEKKKKEAIEKHLEKLKAKDKEAAERFLKELEEAAKEYAKDEAKTMSEEEAKRRAKKYKEKVLLSELSEEEQKEIKGAEEKLVRTILKYVEEAAK", 1.4),
]

Now examine the next entry.
[in] Which value of apparent Kd (screen) has been reported for E19F (designed binder) SMEEEVEKAAKEYEKKKKFAIEKHLEKLKAKDKEAAERFLKELEEAAKEYAKDEAKTMSEEEAKRRAKKYKEKVLLSELSEEEQKEIKEAEEKLVRTILKYVEEAAK in the records?
[out] 0.446
